- target-of-assay: human sodium channels Nav 1.8 (Homo sapiens, UniProt Q9Y5Y9)
- Sequence (Q9Y5Y9 whole entry): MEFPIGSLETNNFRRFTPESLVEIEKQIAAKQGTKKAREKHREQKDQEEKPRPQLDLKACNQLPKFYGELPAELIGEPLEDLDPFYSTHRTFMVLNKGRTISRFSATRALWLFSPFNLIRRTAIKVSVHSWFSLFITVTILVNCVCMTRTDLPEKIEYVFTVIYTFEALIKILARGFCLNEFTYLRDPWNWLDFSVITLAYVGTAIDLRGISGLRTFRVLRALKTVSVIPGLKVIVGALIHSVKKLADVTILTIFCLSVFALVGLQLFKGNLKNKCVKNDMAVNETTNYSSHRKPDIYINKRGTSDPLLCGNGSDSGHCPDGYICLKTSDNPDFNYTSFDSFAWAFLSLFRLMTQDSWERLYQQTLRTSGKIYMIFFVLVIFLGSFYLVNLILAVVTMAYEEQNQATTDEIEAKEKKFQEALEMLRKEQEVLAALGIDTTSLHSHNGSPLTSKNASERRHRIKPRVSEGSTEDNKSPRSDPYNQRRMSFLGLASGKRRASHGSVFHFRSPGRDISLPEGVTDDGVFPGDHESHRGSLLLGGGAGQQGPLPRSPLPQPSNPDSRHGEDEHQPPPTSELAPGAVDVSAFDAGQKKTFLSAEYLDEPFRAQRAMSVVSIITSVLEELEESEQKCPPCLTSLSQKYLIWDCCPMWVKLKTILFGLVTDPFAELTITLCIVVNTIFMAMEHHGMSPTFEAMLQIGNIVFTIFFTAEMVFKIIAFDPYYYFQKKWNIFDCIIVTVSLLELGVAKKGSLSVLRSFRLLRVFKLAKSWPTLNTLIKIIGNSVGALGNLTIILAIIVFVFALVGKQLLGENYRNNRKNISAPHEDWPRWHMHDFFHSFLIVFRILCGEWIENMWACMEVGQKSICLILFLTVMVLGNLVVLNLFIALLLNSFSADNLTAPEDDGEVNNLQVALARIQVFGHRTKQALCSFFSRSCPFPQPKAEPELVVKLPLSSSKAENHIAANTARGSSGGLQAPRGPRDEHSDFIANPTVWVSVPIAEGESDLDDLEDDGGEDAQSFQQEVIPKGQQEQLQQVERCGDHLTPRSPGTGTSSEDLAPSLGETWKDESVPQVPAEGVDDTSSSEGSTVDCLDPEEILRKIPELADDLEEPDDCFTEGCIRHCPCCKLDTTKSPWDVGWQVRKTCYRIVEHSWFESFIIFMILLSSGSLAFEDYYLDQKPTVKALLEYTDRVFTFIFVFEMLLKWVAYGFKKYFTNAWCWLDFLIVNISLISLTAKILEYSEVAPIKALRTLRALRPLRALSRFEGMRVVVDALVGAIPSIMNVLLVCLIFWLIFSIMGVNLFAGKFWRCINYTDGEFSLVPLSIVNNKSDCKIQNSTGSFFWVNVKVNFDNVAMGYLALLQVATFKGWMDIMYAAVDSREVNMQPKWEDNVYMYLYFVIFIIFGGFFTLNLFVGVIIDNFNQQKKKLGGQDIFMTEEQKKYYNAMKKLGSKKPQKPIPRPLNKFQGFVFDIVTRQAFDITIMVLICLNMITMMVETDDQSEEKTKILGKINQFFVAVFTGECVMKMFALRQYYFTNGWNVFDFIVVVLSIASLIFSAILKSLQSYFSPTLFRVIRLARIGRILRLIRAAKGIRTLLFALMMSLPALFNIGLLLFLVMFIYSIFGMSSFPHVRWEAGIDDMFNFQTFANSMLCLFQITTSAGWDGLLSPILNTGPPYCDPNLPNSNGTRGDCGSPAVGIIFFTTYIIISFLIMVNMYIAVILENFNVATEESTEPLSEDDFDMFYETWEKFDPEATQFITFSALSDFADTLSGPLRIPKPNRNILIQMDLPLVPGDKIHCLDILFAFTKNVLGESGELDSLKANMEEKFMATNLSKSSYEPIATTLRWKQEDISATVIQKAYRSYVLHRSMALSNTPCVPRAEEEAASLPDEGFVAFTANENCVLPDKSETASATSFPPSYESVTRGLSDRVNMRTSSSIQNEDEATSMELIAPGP
- assay-explanation: Automated whole-cell voltage-clamp (ScreenPatch 384P) sodium current block, Nav 1.8
- details: CHO cells stably expressing human Nav 1.8; holding -100 mV, inactivation step -40 mV for 8 seconds, test step 10 mV (TP1A); exposure at least five minutes, room temperature; mean where tested in two or more assays; read-out: Nav1.8 IC50
pIC50: −log10 of the molar value.
observed-property: pIC50

Problem: What value of measured pIC50 is listed for CCOc1ccc(-c2cncc(C(=O)NCCc3cc(C(C)O)cnc3F)n2)cc1 (stereo not shown) ?
Solution: < 6.00

Problem: // same read-out, input: CCOc1ccc(-c2cncc(C(=O)NC[C@H](O)c3cc(OC)cc(OC)c3)n2)cc1
Solution: < 6.00

Problem: // same read-out, input: CCOc1ccc(-c2cc(C(=O)NCCc3cc(OC)cnc3F)cnn2)cn1
Solution: < 6.00

Problem: // same read-out, input: CCOc1ccc(-c2nccc(C(=O)NCCc3cc(OC)cnc3F)n2)cc1
Solution: < 6.00

====

- target-of-assay: UniProtKB Q15858
- assay-explanation: Automated whole-cell voltage-clamp (ScreenPatch 384P) sodium current block, Nav 1.7
- details: CHO cells stably expressing human Nav 1.7; holding -100 mV, inactivation step -40 mV for 8 seconds, test step 0 mV (TP1A); exposure at least five minutes, room temperature; mean where tested in two or more assays; read-out: Nav1.7 IC50
For each entry below, report its IC50 value.

Problem: What value of measured IC50 is listed for CCOc1ccc(-c2cncc(C(=O)NCCc3cccc(OC)c3)n2)cc1 ?
Solution: < 500 nM

Problem: // same read-out, input: CCOc1ccc(-c2cncc(C(=O)NCCc3cc(OC)cc(C(C)O)c3)n2)cc1 (stereo not drawn)
Solution: > 1000 nM

Problem: // same read-out, input: CCOc1ccc(-c2cnnc(C(=O)NCCc3cc(OC)cnc3F)c2)cc1
Solution: > 1000 nM

Problem: // same read-out, input: COc1ccc(-c2cncc(C(=O)NCCc3ccccc3F)n2)cn1
Solution: > 1000 nM

Problem: // same read-out, input: CCOc1ccc(-c2ccnc(C(=O)NCCc3cc(OC)cnc3F)n2)cc1
Solution: > 1000 nM

Problem: // same read-out, input: CCOc1ccc(-c2cncc(C(=O)NCCc3cccc(C(C)O)c3)n2)cc1 (stereo not drawn)
Solution: > 1000 nM

Problem: // same read-out, input: CCOc1ccc(-c2cncc(C(=O)NCCc3cc(OC)cc(OC)c3)n2)c(C)c1
Solution: < 500 nM

Problem: // same read-out, input: COc1cnc(F)c(CCNC(=O)c2cncc(-c3ccc(C(C)(C)O)nc3)n2)c1
Solution: > 1000 nM

Problem: // same read-out, input: CCOc1ccc(-c2cncc(C(=O)NC[C@@H](O)c3cc(OC)cc(OC)c3)n2)cc1
Solution: > 1000 nM

====

- target-of-assay: human sodium channels Nav 1.7 (Homo sapiens, UniProt Q15858)
- Sequence (Q15858 whole entry): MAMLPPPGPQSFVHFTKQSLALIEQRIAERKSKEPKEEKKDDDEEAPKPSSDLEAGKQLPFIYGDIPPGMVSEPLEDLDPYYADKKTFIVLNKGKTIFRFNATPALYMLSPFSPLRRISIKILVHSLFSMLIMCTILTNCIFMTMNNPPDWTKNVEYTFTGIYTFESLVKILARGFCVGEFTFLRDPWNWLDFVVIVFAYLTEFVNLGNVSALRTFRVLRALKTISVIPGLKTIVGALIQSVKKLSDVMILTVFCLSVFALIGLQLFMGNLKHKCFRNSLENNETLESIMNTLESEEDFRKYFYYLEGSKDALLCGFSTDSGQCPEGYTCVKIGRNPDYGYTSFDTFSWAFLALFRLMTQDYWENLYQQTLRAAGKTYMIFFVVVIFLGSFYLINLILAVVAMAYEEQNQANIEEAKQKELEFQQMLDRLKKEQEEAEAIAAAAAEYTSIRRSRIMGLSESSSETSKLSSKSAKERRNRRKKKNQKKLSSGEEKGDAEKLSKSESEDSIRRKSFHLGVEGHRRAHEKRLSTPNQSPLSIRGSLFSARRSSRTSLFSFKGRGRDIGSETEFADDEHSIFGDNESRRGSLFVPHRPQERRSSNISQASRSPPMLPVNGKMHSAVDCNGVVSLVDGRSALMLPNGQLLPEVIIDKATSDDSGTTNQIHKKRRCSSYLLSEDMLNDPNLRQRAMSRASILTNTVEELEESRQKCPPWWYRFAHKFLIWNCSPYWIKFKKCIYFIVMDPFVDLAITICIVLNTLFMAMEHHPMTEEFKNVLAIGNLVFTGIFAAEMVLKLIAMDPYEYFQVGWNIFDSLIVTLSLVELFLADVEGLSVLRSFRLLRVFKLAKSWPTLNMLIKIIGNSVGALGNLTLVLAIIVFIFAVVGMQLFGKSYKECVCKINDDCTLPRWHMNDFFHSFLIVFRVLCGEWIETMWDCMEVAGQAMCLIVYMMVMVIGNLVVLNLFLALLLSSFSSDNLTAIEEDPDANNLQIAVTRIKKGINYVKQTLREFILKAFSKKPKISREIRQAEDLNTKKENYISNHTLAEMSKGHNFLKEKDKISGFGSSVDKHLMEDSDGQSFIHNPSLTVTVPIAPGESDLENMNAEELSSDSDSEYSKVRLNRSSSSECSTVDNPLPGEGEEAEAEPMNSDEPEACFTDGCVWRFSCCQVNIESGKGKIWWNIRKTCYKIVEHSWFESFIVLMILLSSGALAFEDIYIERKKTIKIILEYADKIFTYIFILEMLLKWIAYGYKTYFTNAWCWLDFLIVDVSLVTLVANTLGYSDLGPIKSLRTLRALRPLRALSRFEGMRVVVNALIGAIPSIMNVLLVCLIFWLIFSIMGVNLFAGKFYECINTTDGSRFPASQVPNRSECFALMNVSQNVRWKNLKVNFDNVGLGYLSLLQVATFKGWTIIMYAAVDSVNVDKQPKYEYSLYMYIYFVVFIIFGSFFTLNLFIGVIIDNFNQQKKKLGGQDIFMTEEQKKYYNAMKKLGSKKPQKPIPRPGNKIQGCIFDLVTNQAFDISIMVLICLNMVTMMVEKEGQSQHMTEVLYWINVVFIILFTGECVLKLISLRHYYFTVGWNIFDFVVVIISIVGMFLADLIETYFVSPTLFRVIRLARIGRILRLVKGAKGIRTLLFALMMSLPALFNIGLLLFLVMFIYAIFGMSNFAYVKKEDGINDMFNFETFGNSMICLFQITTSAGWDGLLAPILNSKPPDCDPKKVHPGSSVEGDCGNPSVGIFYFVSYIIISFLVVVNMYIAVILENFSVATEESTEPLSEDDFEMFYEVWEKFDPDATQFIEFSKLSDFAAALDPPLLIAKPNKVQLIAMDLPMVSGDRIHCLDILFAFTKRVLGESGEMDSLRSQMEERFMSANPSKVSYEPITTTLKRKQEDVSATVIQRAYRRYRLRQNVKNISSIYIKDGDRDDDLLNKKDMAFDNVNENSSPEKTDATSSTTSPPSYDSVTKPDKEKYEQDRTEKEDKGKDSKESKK
- assay-explanation: Automated whole-cell voltage-clamp (ScreenPatch 384P) sodium current block, Nav 1.7
- details: CHO cells stably expressing human Nav 1.7; holding -100 mV, inactivation step -40 mV for 8 seconds, test step 0 mV (TP1A); exposure at least five minutes, room temperature; mean where tested in two or more assays; read-out: Nav1.7 IC50
For each entry below, report its IC50 value.

Problem: What value of measured IC50 is listed for CCOc1ccc(-c2cncc(C(=O)Nc3cc4c(F)ccc(OC)c4n3C)n2)cn1 ?
Solution: > 1000 nM

Problem: // same read-out, input: CCOc1ccc(-c2cncc(C(=O)NCCc3cc(OC)cnc3F)n2)cc1
Solution: > 1000 nM

Problem: // same read-out, input: CCOc1ccc(-c2cncc(C(=O)NCCc3cc(OC)cc(OC)c3)n2)cc1
Solution: 500 to 1000 nM

Problem: // same read-out, input: CCOc1ccc(-c2cncc(C(=O)N[C@H]3Cc4c(OC)cnc(F)c4C3)n2)cn1
Solution: > 1000 nM
